The reported numbers originate from ChEMBL document CHEMBL1125581.

Biological target: Muscarinic acetylcholine receptor M3 (Rattus norvegicus, UniProt P08483)
Sequence (P08483 whole entry): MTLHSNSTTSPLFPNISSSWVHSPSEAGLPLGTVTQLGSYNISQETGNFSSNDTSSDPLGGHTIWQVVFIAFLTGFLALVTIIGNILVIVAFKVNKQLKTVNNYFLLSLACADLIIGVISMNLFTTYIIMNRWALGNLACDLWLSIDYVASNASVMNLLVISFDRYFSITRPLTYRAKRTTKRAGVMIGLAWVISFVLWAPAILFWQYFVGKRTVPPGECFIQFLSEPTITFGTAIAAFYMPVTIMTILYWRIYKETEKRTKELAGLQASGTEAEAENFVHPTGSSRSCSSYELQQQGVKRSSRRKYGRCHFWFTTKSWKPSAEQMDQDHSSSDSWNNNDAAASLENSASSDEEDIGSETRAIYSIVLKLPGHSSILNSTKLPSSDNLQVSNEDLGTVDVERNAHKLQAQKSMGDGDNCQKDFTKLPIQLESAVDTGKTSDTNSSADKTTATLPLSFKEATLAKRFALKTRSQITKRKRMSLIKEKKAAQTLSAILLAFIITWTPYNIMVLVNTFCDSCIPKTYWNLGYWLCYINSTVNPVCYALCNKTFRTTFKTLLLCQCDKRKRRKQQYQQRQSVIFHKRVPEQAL
Experiment: The compound was tested for the inhibition of binding of [3H]N-Methyl-scopolamine to Muscarinic acetylcholine receptor M3 of transfected A9L cells.
Assay type: cell-based
measurement_name: pKi
By convention, pKi is the negative base-10 log of a molar concentration.

The compound identified as "O=C1Nc2cccnc2N(C(=O)CN2CCN(CCCl)CC2)c2ccccc21" registered its pKi at 7.11

---

Hi there, I'd appreciate the recorded Ki for every entry that follows.
Target: Muscarinic acetylcholine receptor M4 (Rattus norvegicus)
Sequence (P08485 whole entry): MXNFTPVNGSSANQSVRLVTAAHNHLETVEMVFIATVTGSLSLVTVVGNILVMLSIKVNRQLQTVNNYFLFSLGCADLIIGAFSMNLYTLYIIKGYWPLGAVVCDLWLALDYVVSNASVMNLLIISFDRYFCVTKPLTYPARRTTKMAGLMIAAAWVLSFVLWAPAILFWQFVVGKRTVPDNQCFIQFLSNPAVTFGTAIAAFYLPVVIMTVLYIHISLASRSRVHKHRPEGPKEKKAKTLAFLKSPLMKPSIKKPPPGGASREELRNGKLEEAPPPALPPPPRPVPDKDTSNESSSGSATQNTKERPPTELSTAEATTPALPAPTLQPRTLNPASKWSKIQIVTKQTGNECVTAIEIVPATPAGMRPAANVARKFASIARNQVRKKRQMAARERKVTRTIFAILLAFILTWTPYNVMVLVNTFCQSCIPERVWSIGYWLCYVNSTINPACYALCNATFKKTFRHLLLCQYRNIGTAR
Experiment: Inhibition of binding of [3H]N-Methyl-scopolamine to muscarinic acetylcholine receptor M4 of rat […] NG108-15 cells
Assay type: cell-based
Use nM as the unit, but write only the number.

Measured Ki for this entry "CNC(=O)c1ccc(CN2CCN(CC(=O)N3c4ccccc4C(=O)Nc4cccnc43)CC2)cc1" on Muscarinic acetylcholine receptor M4 (Rattus norvegicus): 2940

Ki of "NCCN1CCN(CC(=O)N2c3ccccc3C(=O)Nc3cccnc32)CC1" , assay on Muscarinic acetylcholine receptor M4 (Rattus norvegicus), is 2840

Value sought: Ki, system Muscarinic acetylcholine receptor M4 (Rattus norvegicus), item "CC(C)(C)OC(=O)NCCCCCCN1CCN(CC(=O)N2c3ccccc3C(=O)Nc3cccnc32)CC1" . Result: 23.2

---

Exercise: state measured Ki for each of the compounds provided.
Target: Muscarinic acetylcholine receptor M1 (Rattus norvegicus, UniProt P08482)
Sequence (P08482 whole entry): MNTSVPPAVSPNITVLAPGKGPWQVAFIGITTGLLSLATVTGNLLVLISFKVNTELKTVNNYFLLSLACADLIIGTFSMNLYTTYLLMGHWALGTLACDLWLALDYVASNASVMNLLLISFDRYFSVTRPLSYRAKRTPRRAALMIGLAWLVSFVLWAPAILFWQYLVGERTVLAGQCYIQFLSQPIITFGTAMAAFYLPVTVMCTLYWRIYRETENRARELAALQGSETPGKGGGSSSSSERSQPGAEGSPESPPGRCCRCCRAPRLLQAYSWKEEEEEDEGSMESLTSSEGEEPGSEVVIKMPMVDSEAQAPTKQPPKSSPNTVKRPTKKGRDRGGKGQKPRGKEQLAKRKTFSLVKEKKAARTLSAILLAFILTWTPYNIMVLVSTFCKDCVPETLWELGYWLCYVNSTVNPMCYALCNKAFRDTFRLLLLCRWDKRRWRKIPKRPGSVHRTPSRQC
Experiment: The compound was tested for the inhibition of binding of [3H]N-Methyl-scopolamine to muscarinic acetylcholine receptor M1 of transfected A9L cells.
Assay type: cell-based
Note: unit µM is implicit; provide only the numeric part.

Case "CCN1C(=O)c2ccccc2N(C(=O)CN2CCN(C)CC2)c2ncccc21" , Muscarinic acetylcholine receptor M1 (Rattus norvegicus, UniProt P08482), Ki recorded as 7.7

Lab entry: Muscarinic acetylcholine receptor M1 (Rattus norvegicus, UniProt P08482) assay, compound "CN1CCN(CC(=O)N2c3ccccc3C(=O)N(CCCCCCC#N)c3cccnc32)CC1" , Ki = 8.9

---

Kindly supply the reported pKi values for the records listed here.
Target: Muscarinic acetylcholine receptor M3 (Rattus norvegicus)
Assay: Inhibition of binding of [3H]N-methylscopolamine to muscarinic acetylcholine receptor M3 of transfected rat A9L cells.
Assay type: cell-based
pKi is defined as minus the log10 of a concentration measured in mol/L.

# "NCCNC(=O)c1ccc(CN2CCN(CC(=O)N3c4ccccc4C(=O)Nc4cccnc43)CC2)cc1" with Muscarinic acetylcholine receptor M3 (Rattus norvegicus): pKi is 5.44

Lab note: molecule "NCCC(=O)NCCN1CCN(CC(=O)N2c3ccccc3C(=O)Nc3cccnc32)CC1" tested on Muscarinic acetylcholine receptor M3 (Rattus norvegicus); recorded pKi was 5.18

Record for "CC(=O)NCCCC(=O)NCCN1CCN(CC(=O)N2c3ccccc3C(=O)Nc3cccnc32)CC1" under target or system Muscarinic acetylcholine receptor M3 (Rattus norvegicus): pKi reported as 4.97

Hey, Muscarinic acetylcholine receptor M3 (Rattus norvegicus) data for "CSc1ccc2c(c1)C(=O)Nc1cccnc1N2C(=O)CN1CCN(C)CC1" : pKi came out at 5.44
